Origin of the recorded values: patent US20150344457A1

# Tested on: Z-138 cells
# PROTOCOL_TEXT: Z-138 Methylation Assay (In Cell Western for symmetric di-methyl arginine and DNA content)
# Assay type: cell-based
# COND: Homo sapiens, Table D-2, read-out: ICW EC50
pEC50: −log10 of the molar value.
Consider the following compounds; for each one, report its pEC50.

Query string: Specify pEC50 for Cn1ncc2cnc(-c3cccc(OCC(O)CN4CCc5ccccc5C4)c3)cc21 (centres unmarked) and stop.
Result string: 6.00 to 7.00

Query string: Look up pEC50 of Cn1cc2ccc(-c3cccc(OCC(O)CN4CCc5ccccc5C4)c3)nc2n1 (centres unmarked) and report it.
Result string: 6.00 to 7.00

Query string: Report measured pEC50; entry is OC(COc1ccc(C2CCCNC2)cc1)CN1CCc2ccccc2C1 (centres unmarked)
Result string: 6.00 to 7.00

Query string: Return pEC50 for the following compound: CNC(=O)Cn1cnc2ccc(-c3cccc(OCC(O)CN4CCc5ccccc5C4)c3)cc21 (centres unmarked)
Result string: 5.00 to 6.00

Query string: Indicate the recorded pEC50 value for this compound: OC(COc1cccc(-c2cccc3c2oc2ccccc23)c1)CN1CCc2ccccc2C1 (centres unmarked)
Result string: 5.00 to 6.00
